The following compounds are shown together with reported Max % values.
# experimental system: HEK cells stably transfected with tetracycline inducible hNR1 and hNR2A (Homo sapiens, UniProt Q05586+Q12879)
# Construct: expressed in transfected cells; host or cells: HEK cells, stably transfected, tetracycline/doxycycline inducible
# Sequence (Q12879 23-1464, other chains not shown): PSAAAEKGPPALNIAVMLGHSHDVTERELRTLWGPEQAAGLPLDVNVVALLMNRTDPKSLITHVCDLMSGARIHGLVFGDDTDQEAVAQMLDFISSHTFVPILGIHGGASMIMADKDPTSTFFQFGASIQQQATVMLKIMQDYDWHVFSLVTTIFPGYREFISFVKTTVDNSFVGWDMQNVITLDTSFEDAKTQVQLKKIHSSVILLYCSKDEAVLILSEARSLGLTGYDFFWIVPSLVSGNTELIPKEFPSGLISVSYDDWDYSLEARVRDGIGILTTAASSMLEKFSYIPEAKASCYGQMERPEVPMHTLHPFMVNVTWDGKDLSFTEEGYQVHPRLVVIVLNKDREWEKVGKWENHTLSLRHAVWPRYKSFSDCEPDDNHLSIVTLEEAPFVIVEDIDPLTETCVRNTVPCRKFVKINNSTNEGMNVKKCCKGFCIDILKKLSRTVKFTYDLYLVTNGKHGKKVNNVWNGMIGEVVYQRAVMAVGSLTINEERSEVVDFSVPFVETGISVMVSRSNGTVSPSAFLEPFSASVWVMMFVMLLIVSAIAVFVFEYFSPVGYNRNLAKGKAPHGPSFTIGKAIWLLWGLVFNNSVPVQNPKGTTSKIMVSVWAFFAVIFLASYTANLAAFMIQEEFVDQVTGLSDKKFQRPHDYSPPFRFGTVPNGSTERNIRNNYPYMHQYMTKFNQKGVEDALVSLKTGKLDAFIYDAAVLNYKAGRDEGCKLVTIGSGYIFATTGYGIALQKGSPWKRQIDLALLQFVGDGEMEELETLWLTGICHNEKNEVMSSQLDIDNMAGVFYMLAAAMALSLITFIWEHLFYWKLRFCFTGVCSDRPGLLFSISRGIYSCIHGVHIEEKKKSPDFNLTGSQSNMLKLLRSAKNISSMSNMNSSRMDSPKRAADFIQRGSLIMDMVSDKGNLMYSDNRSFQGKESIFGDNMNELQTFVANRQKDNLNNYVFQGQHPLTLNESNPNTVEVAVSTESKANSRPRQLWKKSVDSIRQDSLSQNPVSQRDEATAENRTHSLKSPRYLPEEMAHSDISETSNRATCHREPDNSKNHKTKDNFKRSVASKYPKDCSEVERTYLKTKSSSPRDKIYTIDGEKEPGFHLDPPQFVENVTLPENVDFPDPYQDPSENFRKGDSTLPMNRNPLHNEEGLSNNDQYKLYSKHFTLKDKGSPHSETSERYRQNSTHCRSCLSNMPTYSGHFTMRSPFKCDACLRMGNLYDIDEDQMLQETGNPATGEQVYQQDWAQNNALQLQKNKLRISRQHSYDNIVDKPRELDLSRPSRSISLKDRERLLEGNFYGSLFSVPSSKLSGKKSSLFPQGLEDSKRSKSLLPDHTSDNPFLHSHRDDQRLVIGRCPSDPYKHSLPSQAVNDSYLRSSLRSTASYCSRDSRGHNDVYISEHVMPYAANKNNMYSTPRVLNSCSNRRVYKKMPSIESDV
# assay method text: Assay 1: Cell-Based Assay, cytosolic calcium response to positive allosteric modulators (with 30 μM glycine and 300 nM L-glutamate, EC30)
# settings: Table 2; responses scaled relative to 100 μM L-glutamate maximal response (100%) and 0 μM L-glutamate (0%)
measurement label: Max % (%)

compound	measurement unit	experimental result
Cc1sc2nc(COc3ccc(F)cc3)cc(=O)n2c1CCCO	%	75.4
CCN(Cc1cc(=O)n2c(CCC(N)=O)c(C)sc2n1)c1ccc(F)cc1	%	125
CCN(Cc1cc(=O)n2c3c(sc2n1)CCC3(C)C)c1ccc(F)cc1	%	108
CCCCc1c(C)sc2nc(CN(CC)c3ccc(F)cc3)cc(=O)n12	%	111
CCNC(=O)c1c(C)sc2nc(Cc3cccc(C#N)c3F)c(F)c(=O)n12	%	126
CNC(=O)c1c(C)sc2nc(Cc3cccc(CF)c3F)cc(=O)n12	%	111
CCN(Cc1cc(=O)n2c(Cn3cccn3)c(C)sc2n1)c1ccc(F)cc1	%	172
Cc1sc2nc(CN(C)c3ccc(F)cc3)cc(=O)n2c1-c1cncnc1	%	148
CCN(Cc1cc(=O)n2c(Cl)csc2n1)c1ccc(F)cc1	%	167
Cc1sc2nc(C(C)n3nc(C(F)(F)F)cc3C3CC3)cc(=O)n2c1C1(C)CC1CO (stereo not shown)	%	64.2
CCN(Cc1cc(=O)n2c(C(F)CCO)c(C)sc2n1)c1ccc(F)cc1 (stereo not shown)	%	192
CCN(Cc1cc(=O)n2c(CCC(=O)N(C)C)c(C)sc2n1)c1ccc(F)cc1	%	61.2
CCN(Cc1cc(=O)n2c(C3CCCCC3)c(C)sc2n1)c1ccc(F)cc1	%	48.1
CCN(Cc1cc(=O)n2c(C(O)CO)c(C)sc2n1)c1ccc(F)cc1 (stereo not shown)	%	153
CCN(Cc1cc(=O)n2c(C3CC3)c(C)sc2n1)c1ccc(F)cc1	%	149
CCNC(=O)c1c(C)sc2nc(Cc3cccc(Cl)c3F)cc(=O)n12	%	131
Cc1sc2nc(COc3ccc(F)cc3)cc(=O)n2c1-c1ncco1	%	40.8
Cc1sc2nc(COc3ccc(F)cc3)cc(=O)n2c1C(=O)NCC#N	%	63
C/C(=N\O)c1c(C)sc2nc(COc3ccc(F)cc3)cc(=O)n12	%	137
Cc1sc2nc(Cn3nc(C(F)(F)F)cc3C3CC3)cc(=O)n2c1-c1cncnc1	%	135
Cc1sc2nc(Cc3cc(F)cc(C#N)c3)cc(=O)n2c1[C@@H]1C[C@H]1CO (relative stereo)	%	134
CCN(Cc1cc(=O)n2c([C@@H]3C[C@H]3CF)c(C)sc2n1)c1ccc(F)cc1 (relative stereo)	%	167
CCN(Cc1cc(=O)n2c3c(sc2n1)CCC3CCO)c1ccc(F)cc1 (stereo not shown)	%	154
COCc1c(C)sc2nc(COc3ccc(F)cc3)cc(=O)n12	%	43.3
CCN(Cc1cc(=O)n2c(-c3cncnc3)c(C)sc2n1)c1cccc(F)c1	%	168
CCNC(=O)c1c(C)sc2nc(Cc3cccc(C#N)c3F)cc(=O)n12	%	131
Cc1sc2nc(Cn3nc(C(F)(F)F)cc3C3CC3)c(F)c(=O)n2c1[C@@H]1C[C@H]1CO (relative stereo)	%	153
Cc1sc2nc(Cc3ccc(C(F)(F)F)cc3)cc(=O)n2c1C1CC1CO (stereo not shown)	%	78.7
CCN(Cc1cc(=O)n2c(CN3CCCC3)c(C)sc2n1)c1ccc(F)cc1	%	72.1
Cc1sc2nc(Cn3nc(C(F)F)cc3C)cc(=O)n2c1[C@@H]1C[C@H]1CO (relative stereo)	%	149
Cc1sc2nc(Cn3nc(C(F)(F)F)c(F)c3C3CC3)cc(=O)n2c1C1CC1CO (stereo not shown)	%	133
CCN(Cc1cc(=O)n2c(-c3cn[nH]c3)c(C)sc2n1)c1ccc(F)cc1	%	118
Cc1sc2nc(Cn3nc(C(F)(F)F)cc3C#N)cc(=O)n2c1[C@@H]1C[C@H]1CO (relative stereo)	%	126
Cc1sc2nc(COc3ccc(F)cc3)cc(=O)n2c1-c1ccn[nH]1	%	50
